B1: SH3 and PX domain-containing protein 2B, residues 155 to 209; numbered along this chain, A1X283 (parent)
chain: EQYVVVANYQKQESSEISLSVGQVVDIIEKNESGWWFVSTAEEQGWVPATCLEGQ

Variants of: B1
Experiment: abundance fitness (aPCA) (normalised: wild type 0, dead -1); higher = more abundant; growth selection in yeast, the domain comes from the species named
Details: Homo sapiens
Experimental endpoint: abundance fitness
Kindly provide the number alone.

abundance fitness for EQYVVVANYQKQESSEISLSVGQVVDIIEKNPSGWWFVSTAEEQGWVPATCLEGQ [E32P] ?
-0.084

Return reported abundance fitness; argument: EQYVEVANYQKQESSEISLSVGQVVDIIEKNESGWWFVSTAEEQGWVPATCLEGQ [V5E]
-0.939

Quick one: abundance fitness for EQYVVVANYQKQESSEISLSVGQVVDIIEKNESGWWFVSTGEEQGWVPATCLEGQ [A41G] ?
-0.122

Would you kindly share the measured abundance fitness for EQYVVVANYQKQESSEISLSVGQVVDIIEKNESGWWEVSTAEEQGWVPATCLEGQ [F37E] ?
-0.237

Please report the recorded abundance fitness for EQYVVVANYQKQESSEISLSVGQVVDIIEKWESGWWFVSTAEEQGWVPATCLEGQ [N31W] .
-0.367

Which abundance fitness value is on record for EQYVVVANYQKQETSEISLSVGQVVDIIEKNESGWWFVSTAEEQGWVPATCLEGQ [S14T] ?
-0.036

# get_value(readout='abundance fitness', item= EQYVVVANYQKQERSEISLSVGQVVDIIEKNESGWWFVSTAEEQGWVPATCLEGQ [S14R] )
-0.073

Fill blank: measured abundance fitness of the variant EQYVVVANYQKQESREISLSVGQVVDIIEKNESGWWFVSTAEEQGWVPATCLEGQ [S15R] is ____.
0.04

Which abundance fitness value is on record for EQYVVVANYQKQESSEISLSVGQVVDIIEKNESGWWFVSTAEEQGWVIATCLEGQ [P48I] ?
-0.956

Which measured abundance fitness value corresponds to EQYVVVANYQKQESSEISLSVGQVVDIIEKNESGWWFVSTAEEQGWVVATCLEGQ [P48V] ?
-0.79

// query abundance fitness value for entry EQYVVVANYQKQESSECSLSVGQVVDIIEKNESGWWFVSTAEEQGWVPATCLEGQ [I17C]
0.014

Given the entry EQYVVVANYQKQESSEISLSVGQVVDIIEKNEIGWWFVSTAEEQGWVPATCLEGQ [S33I] , report its measured abundance fitness.
-0.393

Find the recorded abundance fitness belonging to EQYVVVANYQKQESSEISLSVGQVVDIIEKNESGWWFVSTAEEQGWVPATCNEGQ [L52N] and report it.
-1.05

What does the data say about its abundance fitness? Entry: EQYVVVANYQKQESSEISLSVGQVVDIIVKNESGWWFVSTAEEQGWVPATCLEGQ [E29V]
-0.258

Quick check: abundance fitness of EQYVVVANYQKQESSEISLSVGQVVDIIEKNESGWWFVMTAEEQGWVPATCLEGQ [S39M] ?
-0.018

Please look up its abundance fitness: EQYVVVANYQKQESSEISLSVGQVVDIIEKNESGWWFVSTAEEQGWVPADCLEGQ [T50D]
-0.093

Param item = EQYVVVANYQKQESSEISLSVGQVVDIIEKNESGWWFESTAEEQGWVPATCLEGQ [V38E] ; retrieve measured abundance fitness.
-0.76

Find the recorded abundance fitness belonging to EQYVVVANYQKQESSEISLSVGQVVDIIEKNESGWWFVSTAEEQGWVPHTCLEGQ [A49H] and report it.
0.118

Which measured abundance fitness value corresponds to EQYVVVANYQKQESSEISLSVGQVVNIIEKNESGWWFVSTAEEQGWVPATCLEGQ [D26N] ?
0.146

I have this variant here, EQYVVVANYQKQESSEISLSVGQVVDIIEKNESGWWFVSTFEEQGWVPATCLEGQ [A41F] , and I need its recorded abundance fitness.
-0.113

Looking for the measured abundance fitness of EQYVVVANYQKQESSEISLSVGQVVDIIEKNESGWWFVSTAEEQGWVSATCLEGQ [P48S] , can you help?
-0.544

Which abundance fitness is listed for EQYVVVANYQKQESSEISLSVGPVVDIIEKNESGWWFVSTAEEQGWVPATCLEGQ [Q23P] ?
-0.978
